- test.system: PICK1, Q9NRD5
- Sequence (Q9NRD5 17-115): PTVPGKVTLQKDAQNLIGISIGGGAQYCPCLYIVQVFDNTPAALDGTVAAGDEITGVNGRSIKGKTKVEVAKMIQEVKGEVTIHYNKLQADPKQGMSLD
- protocol.details: holdup assay
- Design: key: below the threshold = too weak to quantify, mostly under pKd 3.1 to 4
- cond: plain residues with an end cap or a label only (N-terminal biotin on a linker: ado-ado)
measured.attribute: pKd

Examples with their reported pKd follow.
>>> observed_value("VKQYADVEGF [HNRNPK, P61978;P61978-2]")
"below the threshold"
>>> observed_value("SQDPKKPSRV [CBY2, Q8NA61]")
4.21
>>> observed_value("SRPHTNETSL [MCC, P23508]")
"below the threshold"
>>> observed_value("QKNKDREYYV [NRXN3, Q9HDB5]")
"below the threshold"

Data request, read-out pKd, for STYCDYTIEI [FAM71C, Q8NEG0] below the threshold

The measurements presented in this section are drawn from paper PMC9482650.
